assay: Drug uptake in human K562 cells assessed as membrane penetration by measuring increase in fluorescence intensity at 5 umol/L incubated for 2 hrs by flow cytometry relative to C9C; type: ADME, cell-based; settings: k562, 2 h, 5 µM, dose 5 µmol/L
Peptide text beside a SMILES is read from it.
Define the label as T when fold change (FC) is strictly less than 5 and as F in all remaining cases.

fold change (FC) under 5? Item: CC(C)C[C@H](NC(=O)[C@H](Cc1csc2ccccc12)NC(=O)[C@@H](Cc1ccccc1)NC(=O)[C@H](Cc1ccccc1)NC(=O)CNC(=O)[C@@H](N)CS)C(=O)N[C@@H](CCCNC(=N)N)C(=O)N[C@@H](CO)C(=O)N[C@@H](CS)C(=O)O
T

Quick check: fold change (FC) of CC(C)C[C@@H]1NC(=O)[C@H](Cc2c[nH]c3ccccc23)NC(=O)[C@H](Cc2ccc(O)cc2)NC(=O)[C@H](Cc2ccccc2)NC(=O)[C@H](CCCNC(=N)N)NC(=O)[C@H](CCCCN)NC(=O)[C@H](CCC(=O)O)NC(=O)[C@H](CO)NC(=O)[C@H](CCCNC(=N)N)NC1=O (cyclo(EKRFYWLRS)) under 5?
F

# strict comparison: is reported fold change (FC) < 5? input = CC(C)C[C@@H]1NC(=O)[C@H](Cc2c[nH]c3ccccc23)NC(=O)[C@H](Cc2ccccc2)NC(=O)[C@H](Cc2ccccc2)NC(=O)CNC(=O)[C@H](CCCCN)NC(=O)[C@H](CCC(=O)O)NC(=O)[C@H](CO)NC(=O)[C@H](CCCNC(=N)N)NC1=O (cyclo(EKGFFWLRS))
T

Would you kindly verify if fold change (FC) of CC(C)C[C@@H]1NC(=O)[C@H](Cc2c[nH]c3ccccc23)NC(=O)[C@H](Cc2ccccc2)NC(=O)[C@H](Cc2ccccc2)NC(=O)[C@H](CCCNC(=N)N)NC(=O)[C@H](CCCCN)NC(=O)[C@H](CCC(=O)O)NC(=O)[C@H](CO)NC(=O)[C@H](CCCNC(=N)N)NC1=O (cyclo(EKRFFWLRS)) is strictly less than 5?
F

Origin of measurements: ChEMBL document CHEMBL6071133
